Where do these numbers come from? They come from PubChem BioAssay (Tox21).

EXPERIMENT: qHTS assay to identify small molecule agonists of the peroxisome proliferator-activated receptor delta (PPARd) signaling pathway - cell viability counter screen (AID 743211); further: nearly all actives have a fitted effect of over 55% in size
CONDITIONS USED: PPARd-bla HEK293H viability, CellTiter-Glo luminescence, 17 h; series mostly up to 62.6 µM
Records with an inconclusive call do not appear. Activity calls are given as the source filed them. The call rests on the fitted dose curve; in most records, active means well fitted cell-killing curve with a large enough effect in the repeat runs; inconclusive means weak or mixed curves; inactive means no such curve, though single readings can be large or run the other way.
Select the matching outcome among label 1 (active), label 0 (inactive)

Here are 3 compounds together with their reported answers.
CC(=O)[O][Al] ... label 0
CN(Cc1ccc(C(C)(C)C)cc1)Cc1cccc2ccccc12 ... label 1
OC[C@H]1O[C@@H](OCCc2ccc(O)cc2)[C@H](O)[C@@H](O)[C@@H]1O ... label 0

Qu. Called result for CCCCCCOC(=O)NC(=N)c1ccc(NCc2nc3cc(C(=O)N(CCC(=O)OCC)c4ccccn4)ccc3n2C)cc1
Ans. label 1

Qu. Assay outcome for O=C1c2ccccc2S(=O)(=O)N1CCCCN1CCN(c2ncccn2)CC1 : what was it?
Ans. label 0

Qu. Recorded call for CCCCCCCCCCCCCCOS(=O)(=O)O ?
Ans. label 1

Qu. // outcome(item) with item = CC[N+](C)(CC)CCOC(=O)C(O)(c1ccccc1)C1CCCCC1 (stereo not drawn)
Ans. label 0

Qu. Could you kindly confirm the outcome this assay logged for N=c1ccn2c(n1)O[C@H]1[C@H](O)[C@@H](CO)O[C@H]12 ?
Ans. label 0

Qu. Status in this test for COc1ccc(C)cc1[N+](=O)[O-] ?
Ans. label 0

Qu. What call does the record list for Clc1ccc2c(c1)CCc1cccnc1C2=C1CCNCC1 ?
Ans. label 1

Qu. // outcome(item) with item = COc1cc(Cl)ccc1Oc1ccc(Cl)cc1Cl
Ans. label 1

Qu. Query: recorded result category for C=CC(=O)OCCOCCOC(=O)C=C in this test
Ans. label 1

Qu. What call does the record list for Brc1c2ccccc2cc2ccccc12 ?
Ans. label 0
